Measured folding enthalpy values are reported for all entries that follow.
- test-name: folding enthalpy; higher = less favourable; fluorescence melt of hairpins on a sequencing array, two-state fit
- assay-context: sodium 0.088 M
# value in kcal/mol; strip the unit string

Examples with their reported folding enthalpy follow.
GCTGCCGAAAGGCTAAGC ((((((....)))..))) = -16.8
GATCATATTCATGATC ((((((....)))))) = -37.3
GTGGTGACGAAAGTCCAC (((..(((....)))))) = -19
GATCGGTCCCCGATC ((((((...)))))) = -44.8
GATCCCTAAAGGGATC ((((((....)))))) = -36.5
GATGTGCGAAAGCAGATC (((.(((....))).))) = -32.7
GGCACGGGAAACCGTACC ((.((((....)))).)) = -34.4
GGTCACGAAAGTGCCACC ((((((....)))..))) = -12.9

Value lookup for folding enthalpy; key = GCTTAGGGAAACCTAGGC ((.((((....)))).)) -34.1

Value lookup for folding enthalpy; key = GCGACCTTCGC ((((...)))) -25.4

Value lookup for folding enthalpy; key = GGGGTCGAAAGACGCCCC ((((((....)))..))) -13

Value lookup for folding enthalpy; key = GCGGTGCGAAAGCAGGGC ((..(((....)))..)) -20.5

Value lookup for folding enthalpy; key = GTATCTGGAAACAGATAC (((((((....))))))) -39.5

====

- test-name: folding enthalpy; higher = less favourable; fluorescence melt of hairpins on a sequencing array, two-state fit
- assay-context: sodium 0.088 M
endpoint: folding enthalpy (kcal/mol)
# value in kcal/mol; strip the unit string

GTGGATACGAAAGTACAC (((..(((....)))))) = -13.5

Value lookup for folding enthalpy; key = GCTAAAGGAAACTTTAGC (((((((....))))))) -37.4

Value lookup for folding enthalpy; key = GTGCGGGGAAACCCGCGC (.(((((....))))).) -16.1

Value lookup for folding enthalpy; key = GCATGGCGAAAGCCTAGC ((..(((....)))..)) -17.9

====

- test-name: melting temperature; fluorescence melt of hairpins on a sequencing array, two-state fit, raised by 9.35 °C to match UV melts
- assay-context: sodium 0.088 M
Measured Tm values are reported for all entries that follow.
# value in °C; strip the unit string

Examples with their reported Tm follow.
GTGCCCGAAAGGGGACAC ((((((....)))..))) = 67
GGCAACGAAAGTTTTGCC ((((((....)))..))) = 44.9
GTATATCGAAAGATCTAC (((.(((....))).))) = 31.8

Value lookup for Tm; key = GATCGACGATCGATC ((((((...)))))) 49.2

====

Measured folding enthalpy values are reported for all entries that follow.
- test-name: folding enthalpy; higher = less favourable; fluorescence melt of hairpins on a sequencing array, two-state fit
- assay-context: sodium 0.088 M
# value in kcal/mol; strip the unit string

GCCATCGAAAGATAGGC ((((((....))).))) = -30.3
GATCCCCAACGGGATC ((((((....)))))) = -29.7
TTCCAGAAATGGAA (((((....))))) = -9.36
GATCCTCTAAAGGATC ((((((....)))))) = -39.3
GCCTTGAAAAAGGC (((((....))))) = -24.4

Value lookup for folding enthalpy; key = GCGTAGTACGC ((((...)))) -20.8

Value lookup for folding enthalpy; key = GGGTTGACGAAAGTCCCC (((..(((....)))))) -20.6

Value lookup for folding enthalpy; key = GTTGGCGCGAAAGCGAAC (((..(((....)))))) -12.9

Value lookup for folding enthalpy; key = GTACCTGGAAACAGGTGC (.(((((....))))).) -28.1

Value lookup for folding enthalpy; key = GATCAATAAGTTGATC ((((((....)))))) -33.7

Value lookup for folding enthalpy; key = GATCCGGACTCGGATC ((((((....)))))) -49.4

Value lookup for folding enthalpy; key = GCGGAGCGAAAGCGCTGC ((.(.((....)).).)) -15.2

Value lookup for folding enthalpy; key = GCCCGCCGAAAGGCCGGC (((.(((....))).))) -19.4

====

- test-name: melting temperature; fluorescence melt of hairpins on a sequencing array, two-state fit, raised by 9.35 °C to match UV melts
- assay-context: sodium 0.088 M
# if value of Tm reaches 50 °C, tag label 1; if it stays below, tag label 0

These recorded examples may help you get a feel for the data.
GCCATTCCGAAAGGAGGC (((..(((....)))))) = label 0
GAAAGTGGAAACACTTCC (.(((((....))))).) = label 0
GACCTACGAAAGTACGTC (((.(((....))).))) = label 0
AACTGGAAACAGTT (((((....))))) = label 0
GCCTGGCGAAAGCTATGC ((.(.((....)).).)) = label 0

From here, focus on the item given below.
I'd appreciate it if you could say whether GATAGCGGAAACACTATC (((((.(....).))))) has Tm at least equal to 50 °C. label 0

====

- test-name: folding enthalpy; higher = less favourable; fluorescence melt of hairpins on a sequencing array, two-state fit
- assay-context: sodium 0.088 M
endpoint: folding enthalpy (kcal/mol)
# value in kcal/mol; strip the unit string

Examples with their reported folding enthalpy follow.
GCGTGCGAAAGCAGTCGC ((((((....)))..))) = -20.1
GATCGATTATTCGATC ((((((....)))))) = -42.7
GTATCGGGAAACTGATGC (.(((.(....).))).) = -29.6
GAACAACGAAAGTTCTTC (((.(((....))).))) = -29.8
ACGGTGAAAACCGT (((((....))))) = -22.9

Value lookup for folding enthalpy; key = GATCGGAGACCCGATC ((((((....)))))) -36.6

Value lookup for folding enthalpy; key = GGTCGCGAAAGCGTACC ((((((....))).))) -21.2

Value lookup for folding enthalpy; key = GATCTCCATGGAGATC ((((((....)))))) -42

Value lookup for folding enthalpy; key = GAGCCAGGAAACTAGCTC ((((.((....)).)))) -26.2

Value lookup for folding enthalpy; key = GTGATCGAAAGATACCAC ((((((....)))..))) -10.5

====

- test-name: melting temperature; fluorescence melt of hairpins on a sequencing array, two-state fit, raised by 9.35 °C to match UV melts
- assay-context: sodium 0.088 M
# if value of Tm reaches 50 °C, tag 1; if it stays below, tag -1

These recorded examples may help you get a feel for the data.
GCGGAGCGAAAGCCCCGC ((((.((....)).)))) = 1
GCCTACCGAAAGGTGGC (((.(((....)))))) = 1
GTTACAGGAAACTGTAGC (.(((((....))))).) = -1

I'd appreciate it if you could say whether GATCTCCGTAGAGATC ((((((....)))))) has Tm at least equal to 50 °C. 1

I'd appreciate it if you could say whether GGAGGACGAAAGTCTTCC (((.(((....))).))) has Tm at least equal to 50 °C. 1

I'd appreciate it if you could say whether GATCTGAGGGCAGATC ((((((....)))))) has Tm at least equal to 50 °C. -1

I'd appreciate it if you could say whether GCTGGGGGAAACCTCAGC ((((.((....)).)))) has Tm at least equal to 50 °C. 1

I'd appreciate it if you could say whether GGGTACCGAAAGGTCCCC (((.(((....))).))) has Tm at least equal to 50 °C. 1

I'd appreciate it if you could say whether GATGACCGAAAGGTGATC (((.(((....))).))) has Tm at least equal to 50 °C. -1

I'd appreciate it if you could say whether GTTGAGCGAAAGCTAAC (((.(((....)))))) has Tm at least equal to 50 °C. -1

I'd appreciate it if you could say whether GGGTGAGGAAACTCACTC (.(((((....))))).) has Tm at least equal to 50 °C. 1

I'd appreciate it if you could say whether GGTTGGGGAAACCCAGCC ((.((((....)))).)) has Tm at least equal to 50 °C. 1

I'd appreciate it if you could say whether GTAACACGAAAGTGGTAC (((.(((....))).))) has Tm at least equal to 50 °C. 1

I'd appreciate it if you could say whether GATCCCAAGGGGATC ((((((...)))))) has Tm at least equal to 50 °C. 1

I'd appreciate it if you could say whether GATCAAACAGTTGATC ((((((....)))))) has Tm at least equal to 50 °C. -1

I'd appreciate it if you could say whether CGTATCGGAAACGAAACG (((.(((....))).))) has Tm at least equal to 50 °C. -1

I'd appreciate it if you could say whether GATTGTACGAAAGTAATC (((..(((....)))))) has Tm at least equal to 50 °C. -1

I'd appreciate it if you could say whether GATCGTGTGAACGATC ((((((....)))))) has Tm at least equal to 50 °C. 1
